B1: tRNA (parent)
chain: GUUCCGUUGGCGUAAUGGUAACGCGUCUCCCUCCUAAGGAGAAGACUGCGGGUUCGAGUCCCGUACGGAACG

Variants of: B1
ASSAY: yeast fitness relative to wild type (ratio to wild type); higher = fitter; tRNA-Arg(CCU), competitive growth, 37 C, YPD
Fewer inactive variants are shown than the library holds.
Returns Met if the recorded yeast fitness is greater than or equal to 0.6, and Not met otherwise.

Is yeast fitness for U3A C4A A21U at or above 0.6?
Not met

Please tell me: is the variant U3C A45C C46G C49A A69U at or over 0.6 in terms of yeast fitness?
Not met

Please check the record C11A A21G A40G and state if its yeast fitness is at or above 0.6.
Not met

Say whether A57G G58A shows yeast fitness of 0.6 or more.
Met

Is yeast fitness for G12A C22G C29U at or above 0.6?
Not met

Does yeast fitness meet or surpass 0.6 for U2C C4U C46U G50U C55U ?
Not met

Does C22G U28A C31G C55A have a reported yeast fitness of at least 0.6?
Not met

Kindly determine if yeast fitness recorded for C5U G48A C55U is above or exactly 0.6.
Not met

Hi, just wondering whether G17C C24A shows yeast fitness of 0.6 or higher.
Not met

For this variant, is measured yeast fitness 0.6 or higher? A36U C61U G63A C66U
Not met

Exam item: decide whether the reported yeast fitness for A20U A45C G52C is at least 0.6.
Not met

# bool: yeast fitness of G9C G12A C22U C24U G58A >= 0.6
Not met

Please tell me: is the variant A21C G23A G58C A65U at or over 0.6 in terms of yeast fitness?
Not met

Hello, I need to know if C5U C27U A36G has measured yeast fitness not below 0.6. Thanks!
Met

Can C4A G23A U53C A57C be said to have yeast fitness at or above 0.6?
Not met

Please check the record C27U U59G and state if its yeast fitness is at or above 0.6.
Met

Does U7C G10A G50C have a reported yeast fitness of at least 0.6?
Not met

Hi, just wondering whether C4A C33A A40U shows yeast fitness of 0.6 or higher.
Not met

Dear colleague, could you confirm whether C30G G39C C55A has yeast fitness at or above 0.6?
Not met

Assess whether reported yeast fitness for U8A A40U G52C sits at 0.6 or higher.
Not met

hey, is yeast fitness for this one >= 0.6? A57U C66U G68C A69U
Not met

Given the entry C5G U7A C11U C31A A45C , answer whether its yeast fitness meets or surpasses 0.6.
Not met

I'd appreciate it if you could say whether A20C C29U C49G G63C C66G has yeast fitness at least equal to 0.6.
Not met

Quick check, yeast fitness >= 0.6? G23A C49U
Met

Hi team, for A42C U59A , is the recorded yeast fitness at or above 0.6?
Met

Hi team, for G6C U32A , is the recorded yeast fitness at or above 0.6?
Met

Is reported yeast fitness greater than or equal to 0.6 here: G18A C31A G56C A69C
Not met

Could you please find out whether C22G U26C C33U A37U A40C has yeast fitness that meets 0.6 or exceeds it?
Not met

Evaluate U7C G9A C24G A45U C49A U53A : yeast fitness at minimum 0.6?
Met

Entry C11G G50A : is its yeast fitness no less than 0.6?
Met

Quick check, yeast fitness >= 0.6? U7A A20C G58A G63A
Not met

Does the reported yeast fitness for C22G G39A A42U A57C fall at or above the 0.6 mark?
Not met

For this variant, is measured yeast fitness 0.6 or higher? U28A A65U
Met

// inclusive: yeast fitness at least 0.6? input: C4A C5U C24G A45U
Met

Check if yeast fitness >= 0.6 (inclusive). Item: C11G C24G C27A U28C C33U A65U
Not met

# bool: yeast fitness of C29A A43C >= 0.6
Met

Decide: yeast fitness of C11G A15C G18A C30G U47G G67A >= 0.6?
Met

Answer whether yeast fitness of G12A C55G is greater than or equal to 0.6.
Met

Threshold query (yeast fitness >= 0.6) on C4G C33U A37U G38A A42C
Not met

# check: yeast fitness of A43C C46U G56C is greater than or equal to 0.6
Not met

In plain terms: is recorded yeast fitness at least 0.6 for A43C C49G C61A ?
Met

Check the entry A21G C49A U54C A65G : does yeast fitness equal or exceed 0.6?
Not met

Hi, just wondering whether C11U G38C shows yeast fitness of 0.6 or higher.
Met

Could you verify whether the entry U13G A14U G17A shows yeast fitness of no less than 0.6?
Not met

Is the recorded value of yeast fitness equal to or greater than 0.6 for this variant? C33G G44A G56A C61U
Not met
